Data credit: the supplement of paper PMC10567573

Would you kindly list protein stability index for each of these variants?
B1: RSPH3 (parent)
chain: QRLEEQERRHREEKERRKKQQWEI

# Variants of: B1
# assay.protocol: protein stability index of a GFP-peptide fusion (GPS, HEK-293T) (PSI 1-6); higher = more stable;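 note: lentivirally expressed fusions sorted by FACS into six bins by GFP to DsRed ratio, PSI derived from sequencing read proportions per bin multiplied by bin number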
# settings: c terminus: a fixed tail appended
Answer as a number with no unit attached.

Task: GET /values?readout=protein stability index&item= QRLEEQERRHRERKERRKKQQWEI [E13R]
Result: 4.47

Task: Another variant: QRLEEQERRHREEKERRKKQQWEA [I24A]
Result: 5

Task: // same read-out, input: RRLEEQERRHREEKERRKKQQWEI [Q1R]
Result: 4.49

Task: Another: QRYEEQERRHREEKERRKKQQWEI [L3Y]
Result: 4.43

Task: Another variant to look at: GRLEEQERRHREEKERRKKQQWEI [Q1G]
Result: 4.83

Task: Likewise for QELEEQERRHREEKERRKKQQWEI [R2E] ?
Result: 5.24

Task: Check QRLEEQERRHREEKERRKYQQWEI [K19Y] too.
Result: 4.47

Task: And what about the variant QRLEEQERRHREEKERRKEQQWEI [K19E] ?
Result: 4.98

Task: Note, next up: QRLEEQERKHREEKERRKKQQWEI [R9K]
Result: 4.21

Task: Again, but for QRLEEQEHRHREEKERRKKQQWEI [R8H]
Result: 4.57

Task: Also, QRLEEQERRHRWEKERRKKQQWEI [E12W] please.
Result: 2.58

Task: What about this variant? QRLEEQERRHREEKESRKKQQWEI [R16S]
Result: 4.9

Task: Can you check QRLEEQERRHREEKERRKKIQWEI [Q20I] next?
Result: 4.6

Task: Same again, this time with QRLEEQERRHREEKKRRKKQQWEI [E15K]
Result: 4.74

Task: Field entry: QRLEEQERRHREEKERRKKQAWEI [Q21A]
Result: 4.43

Task: Same again, this time with QRLEEQERRHREEKERRSKQQWEI [K18S]
Result: 4.49

Task: Proceed to QRLEEQERRHREEKERRKKQKWEI [Q21K]
Result: 4.71

Task: Lookup QRLEEQERRSREEKERRKKQQWEI [H10S]
Result: 4.53

Task: Try this variant too: QRLEEQERRHIEEKERRKKQQWEI [R11I]
Result: 4.22

Task: For QRLEEQERRHRYEKERRKKQQWEI [E12Y] then?
Result: 3.78

Task: Same read-out for QRLEEQERRHREEKERRKKQQSEI [W22S] ?
Result: 5.35

Task: Another variant to look at: QRLEEQERRHREEKELRKKQQWEI [R16L]
Result: 4.67

Task: Now this one: QRLEEQERRHREEKERRKKQQMEI [W22M]
Result: 4.88

Task: Check QGLEEQERRHREEKERRKKQQWEI [R2G] too.
Result: 4.54

Task: Proceed to QRLEEQERRHREEAERRKKQQWEI [K14A]
Result: 4.83

Task: Now consider QRLEEQERRHREEKECRKKQQWEI [R16C] .
Result: 5.12

Task: Same for QRLEEQERRHREEKFRRKKQQWEI [E15F]
Result: 3.92

Task: And QRLEEQERRHREEKERRKKQQWEE [I24E] ?
Result: 5.04

Task: Try this variant next: QRLEEQERRHREEKEVRKKQQWEI [R16V]
Result: 5.18

Task: Do the same for QRLEEQERRHREEKERRKKQQWEK [I24K] please
Result: 4.25

Task: Also need NRLEEQERRHREEKERRKKQQWEI [Q1N] , thanks.
Result: 4.5

Task: Also QRLEEQERRHREEFERRKKQQWEI [K14F] ?
Result: 4.69

Task: Next entry: QRLEEQERRHREEKERRKCQQWEI [K19C]
Result: 4.9

Task: Cool, now QRLEEQERRHRQEKERRKKQQWEI [E12Q]
Result: 4.2

Task: Entry to check: TRLEEQERRHREEKERRKKQQWEI [Q1T]
Result: 4.78

Task: Follow-up item: QRLEEQERRAREEKERRKKQQWEI [H10A]
Result: 4.94

Task: Then what about the variant QRLEEQERRHREEKERRKKQQDEI [W22D] ?
Result: 5.52

Task: // next record QRLEEQERTHREEKERRKKQQWEI [R9T]
Result: 4.51

Task: What do you have for QRLEYQERRHREEKERRKKQQWEI [E5Y] ?
Result: 4.28

Task: Record: QRLREQERRHREEKERRKKQQWEI [E4R]
Result: 3.84

Task: And the next one, QRLEMQERRHREEKERRKKQQWEI [E5M] ?
Result: 4.59

Task: Note, next up: QRLEEQERRHREEKERRKVQQWEI [K19V]
Result: 4.59

Task: Also QRLEEQERREREEKERRKKQQWEI [H10E] , if possible.
Result: 5.26

Task: Same thing, different variant: QRLEEQWRRHREEKERRKKQQWEI [E7W]
Result: 4.25

Task: Input QRLEEQQRRHREEKERRKKQQWEI [E7Q]
Result: 3.38

Task: Repeat for the following variant: QRLEEDERRHREEKERRKKQQWEI [Q6D]
Result: 4.6
